system: 26_ds (DNA, duplex) CAATCGGATCGAATTCGATCCGATTG; assay: fluorescent indicator displacement; settings: K+ 40 mM (30 mM KCl + potassium phosphate); 10 mM potassium phosphate pH 7, 25 °C; 0.5 µM thiazole orange displaced, 0.25 µM DNA
Test readout: DC50
Form entry: enter the amount, then its unit.

Data request: Dear colleague, I am looking for the recorded DC50 of the following molecule: C(=N\[C@@H](COCc1ccc(-c2ccccn2)nc1)c1ccccc1)/c1ccccn1.C(=N\[C@@H](COCc1ccc(-c2ccccn2)nc1)c1ccccc1)/c1ccccn1.C(=N\[C@@H](COCc1ccc(-c2ccccn2)nc1)c1ccccc1)/c1ccccn1.[Fe+2].[Fe+2]
Data returned: 5.3 ± 0.3 µM

Data request: Given the molecule C(=N\[C@H](COCc1ccc(-c2ccccn2)nc1)c1ccccc1)/c1ccccn1.C(=N\[C@H](COCc1ccc(-c2ccccn2)nc1)c1ccccc1)/c1ccccn1.C(=N\[C@H](COCc1ccc(-c2ccccn2)nc1)c1ccccc1)/c1ccccn1.[Fe+2].[Fe+2] , what is its reported DC50?
Data returned: 3.8 ± 0.2 µM

Data request: May I ask what DC50 has been recorded for C(=N\[C@H](COCc1ccc(-c2ccccn2)nc1)c1ccccc1)/c1ccc(OCc2cn(Cc3ccccc3)nn2)cn1.C(=N\[C@H](COCc1ccc(-c2ccccn2)nc1)c1ccccc1)/c1ccc(OCc2cn(Cc3ccccc3)nn2)cn1.C(=N\[C@H](COCc1ccc(-c2ccccn2)nc1)c1ccccc1)/c1ccc(OCc2cn(Cc3ccccc3)nn2)cn1.[Fe+2].[Fe+2] ?
Data returned: 2.6 ± 0.1 µM

Data request: Consider the molecule shown here: C(=N\[C@@H](COCc1ccc(-c2ccccn2)nc1)c1ccccc1)/c1ccc(OCc2cn(Cc3ccccc3)nn2)cn1.C(=N\[C@@H](COCc1ccc(-c2ccccn2)nc1)c1ccccc1)/c1ccc(OCc2cn(Cc3ccccc3)nn2)cn1.C(=N\[C@@H](COCc1ccc(-c2ccccn2)nc1)c1ccccc1)/c1ccc(OCc2cn(Cc3ccccc3)nn2)cn1.[Fe+2].[Fe+2] What is its recorded DC50?
Data returned: 3.9 ± 0.2 µM

###

tested on: 22_c-kit1 (DNA, G4) AGGGAGGGCGCTGGGAGGAGGG; assay: fluorescent indicator displacement; conditions: K+ 40 mM (30 mM KCl + potassium phosphate); 10 mM potassium phosphate pH 7, 25 °C; 0.5 µM thiazole orange displaced, 0.25 µM DNA
In this section we review reported DC50 values for a set of compounds.
Supply the numeric figure in nM, leaving out any unit text.

Solved entries (count: 3):
C(=N\[C@H](COCc1ccc(-c2ccccn2)nc1)c1ccccc1)/c1ccc(OCc2cn(Cc3ccccc3)nn2)cn1.C(=N\[C@H](COCc1ccc(-c2ccccn2)nc1)c1ccccc1)/c1ccc(OCc2cn(Cc3ccccc3)nn2)cn1.C(=N\[C@H](COCc1ccc(-c2ccccn2)nc1)c1ccccc1)/c1ccc(OCc2cn(Cc3ccccc3)nn2)cn1.[Fe+2].[Fe+2] | 790
C(=N\[C@@H](COCc1ccc(-c2ccccn2)nc1)c1ccccc1)/c1ccccn1.C(=N\[C@@H](COCc1ccc(-c2ccccn2)nc1)c1ccccc1)/c1ccccn1.C(=N\[C@@H](COCc1ccc(-c2ccccn2)nc1)c1ccccc1)/c1ccccn1.[Fe+2].[Fe+2] | 1410
C(=N\[C@H](COCc1ccc(-c2ccccn2)nc1)c1ccccc1)/c1ccccn1.C(=N\[C@H](COCc1ccc(-c2ccccn2)nc1)c1ccccc1)/c1ccccn1.C(=N\[C@H](COCc1ccc(-c2ccccn2)nc1)c1ccccc1)/c1ccccn1.[Fe+2].[Fe+2] | 960

From here, focus on the item given below.
Data request: Form entry - test system: 22_c-kit1 (DNA, G4) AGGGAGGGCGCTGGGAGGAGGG; read-out: DC50; compound: C(=N\[C@@H](COCc1ccc(-c2ccccn2)nc1)c1ccccc1)/c1ccc(OCc2cn(Cc3ccccc3)nn2)cn1.C(=N\[C@@H](COCc1ccc(-c2ccccn2)nc1)c1ccccc1)/c1ccc(OCc2cn(Cc3ccccc3)nn2)cn1.C(=N\[C@@H](COCc1ccc(-c2ccccn2)nc1)c1ccccc1)/c1ccc(OCc2cn(Cc3ccccc3)nn2)cn1.[Fe+2].[Fe+2]
Data returned: 870

###

The entries below are paired with their reported DC50.
test system: 22_c-myc (DNA, G4) TGAGGGTGGGTAGGGTGGGTAA; assay: fluorescent indicator displacement; details: K+ 40 mM (30 mM KCl + potassium phosphate); 10 mM potassium phosphate pH 7, 25 °C; 0.5 µM thiazole orange displaced, 0.25 µM DNA
Include the unit right after the number.

In the examples that follow, each entry is paired with its recorded DC50.
C(=N\[C@H](COCc1ccc(-c2ccccn2)nc1)c1ccccc1)/c1ccccn1.C(=N\[C@H](COCc1ccc(-c2ccccn2)nc1)c1ccccc1)/c1ccccn1.C(=N\[C@H](COCc1ccc(-c2ccccn2)nc1)c1ccccc1)/c1ccccn1.[Fe+2].[Fe+2] | 530 ± 20 nM
C(=N\[C@@H](COCc1ccc(-c2ccccn2)nc1)c1ccccc1)/c1ccccn1.C(=N\[C@@H](COCc1ccc(-c2ccccn2)nc1)c1ccccc1)/c1ccccn1.C(=N\[C@@H](COCc1ccc(-c2ccccn2)nc1)c1ccccc1)/c1ccccn1.[Fe+2].[Fe+2] | 800 ± 40 nM
C(=N\[C@H](COCc1ccc(-c2ccccn2)nc1)c1ccccc1)/c1ccc(OCc2cn(Cc3ccccc3)nn2)cn1.C(=N\[C@H](COCc1ccc(-c2ccccn2)nc1)c1ccccc1)/c1ccc(OCc2cn(Cc3ccccc3)nn2)cn1.C(=N\[C@H](COCc1ccc(-c2ccccn2)nc1)c1ccccc1)/c1ccc(OCc2cn(Cc3ccccc3)nn2)cn1.[Fe+2].[Fe+2] | 300 ± 30 nM

From here, focus on the item given below.
Data request: Param readout = DC50; param system = 22_c-myc (DNA, G4) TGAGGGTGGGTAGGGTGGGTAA; param query = C(=N\[C@@H](COCc1ccc(-c2ccccn2)nc1)c1ccccc1)/c1ccc(OCc2cn(Cc3ccccc3)nn2)cn1.C(=N\[C@@H](COCc1ccc(-c2ccccn2)nc1)c1ccccc1)/c1ccc(OCc2cn(Cc3ccccc3)nn2)cn1.C(=N\[C@@H](COCc1ccc(-c2ccccn2)nc1)c1ccccc1)/c1ccc(OCc2cn(Cc3ccccc3)nn2)cn1.[Fe+2].[Fe+2] ; response: value
Data returned: 400 ± 30 nM
